Each recorded value in this set is attributed to patent US20080182811A1.

biological target: group I metabotropic glutamate receptor subtype 5 (mGluR5) (Homo sapiens, UniProt P41594); construct: expressed in transfected cells; host or cells: Xenopus oocytes injected with cRNA; assay: Electrophysiological measurement of response current in Xenopus oocytes injected with mGluR5 cRNA; type: cell-based; settings: amino acid alone; aspartic acid 300 μM, cysteine 1 mM, valine 3 mM, others 10 mM; oocytes injected with mGluR5 cRNA
Sequence (P41594 21-1180 isoform P41594-2 limits assumed): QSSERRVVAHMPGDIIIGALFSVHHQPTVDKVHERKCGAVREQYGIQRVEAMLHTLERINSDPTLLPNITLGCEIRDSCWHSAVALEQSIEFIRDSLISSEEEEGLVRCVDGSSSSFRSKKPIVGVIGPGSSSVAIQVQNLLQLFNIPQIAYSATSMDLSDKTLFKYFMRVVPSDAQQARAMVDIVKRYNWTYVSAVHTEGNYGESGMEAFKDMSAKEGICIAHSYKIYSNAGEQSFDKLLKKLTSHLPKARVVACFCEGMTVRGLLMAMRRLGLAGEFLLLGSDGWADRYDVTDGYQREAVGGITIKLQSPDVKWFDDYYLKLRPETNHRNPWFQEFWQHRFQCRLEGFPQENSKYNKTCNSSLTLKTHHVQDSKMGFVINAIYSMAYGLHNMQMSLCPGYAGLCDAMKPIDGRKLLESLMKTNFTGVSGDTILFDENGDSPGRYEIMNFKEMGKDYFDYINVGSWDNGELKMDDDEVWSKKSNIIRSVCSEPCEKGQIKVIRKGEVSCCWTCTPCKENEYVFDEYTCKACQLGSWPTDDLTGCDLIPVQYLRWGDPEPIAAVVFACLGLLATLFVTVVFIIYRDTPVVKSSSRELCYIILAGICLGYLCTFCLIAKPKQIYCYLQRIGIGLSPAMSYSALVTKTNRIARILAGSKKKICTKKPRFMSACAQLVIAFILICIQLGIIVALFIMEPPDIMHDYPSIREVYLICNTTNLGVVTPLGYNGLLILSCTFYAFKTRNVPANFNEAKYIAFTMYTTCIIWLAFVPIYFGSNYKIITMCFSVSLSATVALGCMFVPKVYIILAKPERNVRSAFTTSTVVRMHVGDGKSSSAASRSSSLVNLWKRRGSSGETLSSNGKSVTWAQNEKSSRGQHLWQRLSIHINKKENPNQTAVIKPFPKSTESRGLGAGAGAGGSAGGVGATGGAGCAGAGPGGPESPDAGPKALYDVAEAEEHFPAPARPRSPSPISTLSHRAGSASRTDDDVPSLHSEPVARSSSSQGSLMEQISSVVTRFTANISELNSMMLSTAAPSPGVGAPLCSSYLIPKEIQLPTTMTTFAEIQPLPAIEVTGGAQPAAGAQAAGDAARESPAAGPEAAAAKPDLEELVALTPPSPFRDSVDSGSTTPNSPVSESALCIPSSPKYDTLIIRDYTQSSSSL
Measurement Name: mGluR5 (receptor activation by amino acid)

N[C@@H](CCC(=O)O)C(=O)O [Glutamic acid, glutamic acid, reference compound]	Activated
CC(C)[C@H](N)C(=O)O	Activated
N[C@@H](CC(=O)O)C(=O)O	Activated
N[C@@H](CS)C(=O)O	Activated
